The reported measurements were obtained from paper PMC7943553.

Target: T1, P. vivax Reticulocyte Binding Protein 2b, residues 161–1454 (P. vivax strain Salvador I, UniProt A5K736, DyLight 488 (NHS ester) in the FRET assay; biotin (BirA site) in the competition ELISA between human mAbs)
T1 construct: PvRBP2b, P. vivax strain Salvador I, PlasmoDB PVX_094255 (total length 2806 amino acids), residues 161-1454; also called PvRBP2b_(161–1454); PvRBP2b; source: recombinant; expressed and purified in a similar manner as PvRBP2b161–470 (E. coli SHuffle T7; HisTrap, Q-Sepharose, size exclusion) or as previously described
Assay: ELISA; avidity ELISA: plates coated with 50 ng PvRBP2b161–1454; human mAbs at 0.2 µg/mL; then PBS, 0.5, 1 or 2 M NH4SCN for 20 min; binding relative to no NH4SCN
Settings: both partners purified
measurement_name: percent binding left at 1 M NH4SCN

// below: answered binders
binder: PvRBP2b human mAb 251249 (antibody, V domains shown, variable region as the Fab heavy chain in PDB 6WOZ; cloned into a human IgG1 backbone, full-length antibody; kappa light chain; as the Fab light chain in PDB 6WOZ; IgG1; source: Expi293 HEK cells, transfected, purified (Protein A, gel filtration)) VH: EVQLVESGGGLVKPGGSLRLSCEASGFLFSSYSMNWVRQAPGKGLEWVSSITGYSSEVFYTDSVKGRFTVSRDNSKNSLYLQMDSLRAEDTAVYYCARALTIFGVVITDYWFFDLWGRGTLVTVSS VL: EIVLTQSPATLSLSPGDRATLSCRASQSVTTFLAWYQQKPGQAPRLLIYDVSNRATGIPARFSGSGSGTDFTLTISSLEPEDFAVYYCQQRSNWGLTFGGGTKVEIK
measurement_name: percent binding left at 1 M NH4SCN
reported_value: < 75%
--
binder: PvRBP2b human mAb 283284 (antibody, V domains shown, variable region as the Fab heavy chain in PDB 6WQO; cloned into a human IgG1 backbone, full-length antibody; kappa light chain; as the Fab light chain in PDB 6WQO; IgG1; source: Expi293 HEK cells, transfected, purified (Protein A, gel filtration)) VH: QVQLQQWGAGLLKPSETLALTCTVYGGSSSGYYWNWIRQSPGKGLEWIGEISDSGSTIYNPSLESRVTMSVDTSKNQFSLKLTSVTAADTAVYYCAKAILTRYNWLDPWSQGTLVTVSS VL: DIVMTQSPSSLSASVGDRISISCRASQGVNSALAWYQQKPGKAPKLLIYDASTLESGVPSRFSGSGSGTDFALTINSLQPEDFATYYCQQFNSYPLTFGGGTKVEIK
measurement_name: percent binding left at 1 M NH4SCN
reported_value: < 75%
--
binder: PvRBP2b human mAb 273264 (antibody, V domains shown, variable region as the Fab heavy chain in PDB 6WTU; cloned into a human IgG1 backbone, full-length antibody; lambda light chain; as the Fab light chain in PDB 6WTU; IgG1; same clonal group as 258259; source: Expi293 HEK cells, transfected, purified (Protein A, gel filtration)) VH: EVQLLESGGGLVRPGGSQRLSCAASGFTFTPYAMTWVRQAPGKGLEWLSTISGSGGSTSYADSVKGRFTISRDNSKNILYLQMDSLRAEDTALYYCTKDKDEYTFGHNAFDVWGRGTMVTVSS VL: SYELTQAPSVSVAPGQTARITCGGDNIGRTSVHWYQQKPGQAPVLVIFYDNDRPSGIPERFSGSNSGNMATLSISRVEVGDEADYYCQVWDSNNDHPVFGGGTKLTVV
measurement_name: percent binding left at 1 M NH4SCN
reported_value: < 75%

# input Give reported percent binding left at 1 M NH4SCN value for PvRBP2b human mAb 241242 (antibody, V domains shown, variable region as the Fab heavy chain in PDB 6WN1; cloned into a human IgG1 backbone, full-length antibody; lambda light chain; as the Fab light chain in PDB 6WN1; IgG1; also called 241424 [sic]; source: Expi293 HEK cells, transfected, purified (Protein A, gel filtration)) VH: EVQLLESGGGLVQPGGSLRLSCAVSGFTFRNYALSWVRQAPGKGLDWVSTISASGGATYYADSVKGHFTISRDNSKNILYLDMKSLRAEDTAIYYCARDGGSYTPYFFLDSWGQGALVTVSS VL: SYELTQPASVSVAPGQTAQITCGGNSIGRKSIHWYQHKPGQAPVLVISYDSDRPSGIPERFSGSNSGNTATLTISKVEAGDEADFYCQVRDSDNDHVVFGGGTKLTVL
# output > 75%
